Tgt: T1, hFc-tagged human 4-1BB extracellular domain protein (4-1BB-hFc) (human, UniProt Q07011 24-186, limits assumed)
T1 construct: also called immunogen A; 4-1BB^ECD-hFc; not shown: human IgG Fc fragment (hFc) of the pCpC vector
Assay Method Text: ELISA, coated human 4-1BB-hFc; Ab 0.0006 ug/ml

{"Binder": "15G10D4 (antibody, V domains shown) VH: QVQLVESGGGVVQPGRSLRLSCAASGFSFSSYAMHWVRQAPGKGLEWVAIIWYDGSNQYYADSVKGRFTISRDNSKNTLYLQMNSLRAEDTAVYYCARVKQWLVSYFDYWGQGTLVTVSS VL: EIVMTQSPATLSVSPGERATLSCRASQSVSSNLAWYQQKPGQVPRLLIYGASTRATGIPARFSGSGSGTEFSLIISSLQSEDFAVYYCQQYNNWPTFGGGTKVEIK", "OD450 nm (OD450 nm)": 0.19}
